system: Klebsiella pneumoniae 13249; assay: MIC, solid dilution method; assay type: cell-based; details: K.p 13249, CRE clinical isolate, MHA agar, 37° C., 16-20 hours, read-out: MIC
Quantity Measured: MIC (µg/mL)
Give just the numeric value; µg/mL need not be written.

compound CC1(C)[C@H](NC(=O)/C(=N\O[C@@H](COc2ccc3c(c2)CN(C(=N)NCCN)C3)C(=O)O)c2csc(N)n2)C(=O)N1OS(=O)(=O)O , MIC observed: 8

compound C[C@@H](O)[C@H]1C(=O)N2C(C(=O)O)=C(S[C@@H]3CN[C@H](C(=O)N(C)C)C3)[C@H](C)[C@H]12 [Meropenem, reference compound] , MIC observed: 64

compound CC1(C)[C@H](NC(=O)/C(=N\O[C@@H](COc2ccc3c(c2)CN(C(=N)N(CCCN)CCCN)C3)C(=O)O)c2csc(N)n2)C(=O)N1OS(=O)(=O)O , MIC observed: 4

compound CC1(C)[C@H](NC(=O)/C(=N\O[C@@H](COc2ccc3c(c2)CN(/C(=N\[C@@H]2CCCNC2)N[C@@H]2CCCNC2)C3)C(=O)O)c2csc(N)n2)C(=O)N1OS(=O)(=O)O , MIC observed: 8

---

test system: E. coli 11256; assay: MIC, solid dilution method; type: cell-based; conditions: Escherichia coli; E. coli 11256; MHA agar, 37° C., 16-20 hours; read-out: MIC
In this section, each of the compounds is paired with its reported MIC.
Give just the numeric value; µg/mL need not be written.

Sample answers from the record:
- Compound: "CC1(C)[C@H](NC(=O)/C(=N\\O[C@@H](COc2ccc3c(c2)CN(C(=N)NOCCN)C3)C(=O)O)c2csc(N)n2)C(=O)N1OS(=O)(=O)O [Compound 43]"
  Target System: "E. coli 11256"
  MIC (µg/mL): 0.125
- Compound: "CC1(C)[C@H](NC(=O)/C(=N\\O[C@@H](COc2ccc(C(=N)N[C@@H]3CCCNC3)cc2)C(=O)O)c2csc(N)n2)C(=O)N1OS(=O)(=O)O [AIC499, reference compound]"
  Target System: "E. coli 11256"
  MIC (µg/mL): 0.06
- Compound: "CC1(C)[C@H](NC(=O)/C(=N\\O[C@@H](COc2ccc3c(c2)CN(C(=N)NCCN)C3)C(=O)O)c2csc(N)n2)C(=O)N1OS(=O)(=O)O [Compound 44]"
  Target System: "E. coli 11256"
  MIC (µg/mL): 0.03
- Compound: "CC1(C)[C@H](NC(=O)/C(=N\\O[C@@H](COc2ccc3c(c2)CN(/C(=N\\[C@@H]2CCCNC2)N[C@@H]2CCCNC2)C3)C(=O)O)c2csc(N)n2)C(=O)N1OS(=O)(=O)O [Compound 46]"
  Target System: "E. coli 11256"
  MIC (µg/mL): 0.03

Please find the next compound below.
compound CC1(C)[C@H](NC(=O)/C(=N\O[C@@H](COc2ccc3c(c2)CN(C(=N)N[C@@H]2CCCNC2)C3)C(=O)O)c2csc(N)n2)C(=O)N1OS(=O)(=O)O [Compound 41] , MIC observed: 0.03

---

In this section, each of the compounds is paired with its reported MIC.
System: Klebsiella oxytoca 6777
Experiment: MIC, solid dilution method
Format: cell-based
Conditions: K. ox 6777, CRE clinical isolate, MHA agar, 37° C., 16-20 hours, read-out: MIC
Protocol: The above-mentioned glycerol-preserved strains were taken out from the −80° C. refrigerator, streaked and inoculated on MHA plates, labeled, and cultured overnight in a 37° C. incubator. […] The minimum inhibitory concentrations of the compounds against the CRE and CSE strains were determined by the solid dilution method, and the results are shown in Tables 3 and 4.
Give just the numeric value; µg/mL need not be written.

- Compound: "CC1(C)[C@H](NC(=O)/C(=N\\O[C@@H](COc2ccc(C(=N)N[C@@H]3CCCNC3)cc2)C(=O)O)c2csc(N)n2)C(=O)N1OS(=O)(=O)O [AIC499, reference compound]"
  MIC [µg/mL]: 0.5
- Compound: "CC1(C)[C@H](NC(=O)/C(=N\\O[C@@H](COc2ccc3c(c2)CN(C(=N)NOCCN)C3)C(=O)O)c2csc(N)n2)C(=O)N1OS(=O)(=O)O"
  MIC [µg/mL]: 1
- Compound: "CC1(C)[C@H](NC(=O)/C(=N\\O[C@@H](COc2ccc3c(c2)CN(C(=N)NCCN)C3)C(=O)O)c2csc(N)n2)C(=O)N1OS(=O)(=O)O"
  MIC [µg/mL]: 0.25

MIC for Klebsiella oxytoca 6777 with input CC1(C)[C@H](NC(=O)/C(=N\O[C@@H](COc2ccc3c(c2)CN(C(=N)N[C@@H]2CCCNC2)C3)C(=O)O)c2csc(N)n2)C(=O)N1OS(=O)(=O)O equals 0.25

MIC for Klebsiella oxytoca 6777 with input CC1(C)[C@H](NC(=O)/C(=N\O[C@@H](COc2ccc3c(c2)CN(C(=N)N(CCCN)CCCN)C3)C(=O)O)c2csc(N)n2)C(=O)N1OS(=O)(=O)O equals 0.125

MIC for Klebsiella oxytoca 6777 with input C[C@@H](O)[C@H]1C(=O)N2C(C(=O)O)=C(S[C@@H]3CN[C@H](C(=O)N(C)C)C3)[C@H](C)[C@H]12 [Meropenem, reference compound] equals 16

MIC for Klebsiella oxytoca 6777 with input CC1(C)[C@H](NC(=O)/C(=N\O[C@@H](COc2ccc3c(c2)CN(/C(=N\[C@@H]2CCCNC2)N[C@@H]2CCCNC2)C3)C(=O)O)c2csc(N)n2)C(=O)N1OS(=O)(=O)O equals 0.25
